molecular target: MDR1 P-glycoprotein (P-gp) (Homo sapiens, UniProt P08183); construct: host or cells: MDCK (MDCK-MDR1); assay: Transporter assay, bi-directional transport, MDCK-MDR1 cells; type: in vitro ADME; details: human, MDCK-MDR1, 0.1 uM, basolateral to apical / apical to basolateral, >2 = substrate, read-out: PGP (efflux ratio)
Sequence (P08183 whole entry): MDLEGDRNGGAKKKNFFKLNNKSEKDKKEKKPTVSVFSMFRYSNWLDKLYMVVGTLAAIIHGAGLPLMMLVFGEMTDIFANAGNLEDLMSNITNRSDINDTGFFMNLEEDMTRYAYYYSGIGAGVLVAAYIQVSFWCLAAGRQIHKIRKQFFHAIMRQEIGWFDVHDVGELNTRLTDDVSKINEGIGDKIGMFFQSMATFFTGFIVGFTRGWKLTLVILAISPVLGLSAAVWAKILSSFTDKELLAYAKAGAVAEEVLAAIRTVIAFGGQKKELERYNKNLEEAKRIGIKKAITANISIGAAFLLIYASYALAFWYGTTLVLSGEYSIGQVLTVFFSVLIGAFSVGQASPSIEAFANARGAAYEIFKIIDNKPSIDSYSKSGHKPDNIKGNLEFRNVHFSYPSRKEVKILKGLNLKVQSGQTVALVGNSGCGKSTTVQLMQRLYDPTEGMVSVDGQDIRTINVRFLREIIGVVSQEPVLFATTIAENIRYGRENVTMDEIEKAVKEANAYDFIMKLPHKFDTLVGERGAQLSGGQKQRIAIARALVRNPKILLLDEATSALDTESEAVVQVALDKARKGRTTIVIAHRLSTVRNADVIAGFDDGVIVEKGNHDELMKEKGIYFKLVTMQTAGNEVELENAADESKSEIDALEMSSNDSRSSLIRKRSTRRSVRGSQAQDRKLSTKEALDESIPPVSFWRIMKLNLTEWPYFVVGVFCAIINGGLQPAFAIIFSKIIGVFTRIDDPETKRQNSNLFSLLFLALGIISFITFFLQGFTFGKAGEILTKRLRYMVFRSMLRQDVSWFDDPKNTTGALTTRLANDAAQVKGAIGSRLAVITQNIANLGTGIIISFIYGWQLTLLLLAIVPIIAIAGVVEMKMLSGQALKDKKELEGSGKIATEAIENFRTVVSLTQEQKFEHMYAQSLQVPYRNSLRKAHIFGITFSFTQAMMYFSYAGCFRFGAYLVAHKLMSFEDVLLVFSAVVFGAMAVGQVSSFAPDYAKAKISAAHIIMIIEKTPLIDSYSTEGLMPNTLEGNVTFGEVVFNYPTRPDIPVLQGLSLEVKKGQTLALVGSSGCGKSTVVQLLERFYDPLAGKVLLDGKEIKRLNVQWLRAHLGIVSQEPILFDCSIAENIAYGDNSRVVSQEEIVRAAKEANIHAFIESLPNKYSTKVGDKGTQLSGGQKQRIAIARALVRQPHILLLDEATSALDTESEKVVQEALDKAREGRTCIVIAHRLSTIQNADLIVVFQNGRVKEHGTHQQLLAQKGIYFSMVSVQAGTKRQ
compounds and their reported efflux ratio at 2 h, 0.1 uM
The reply should be a number, written without any unit.

Use the examples below as a reference point.
>>> reportedresult("CC(O)(c1ccc(F)cc1)C(F)(F)CCOc1cccc(-c2ccn3nc(N)nc3c2)c1F (single isomer, unassigned) [Example 2]")
1.8
>>> reportedresult("CC(O)(c1ccc(F)cn1)C(F)(F)CCOc1c(F)ccc(-c2ccn3nc(N)nc3c2)c1F (single isomer, unassigned) [Example 27]")
1.1

Proceed to the following item.
Input: Query for MDR1 P-glycoprotein (P-gp) (Homo sapiens, UniProt P08183): what efflux ratio at 2 h, 0.1 uM does the record show for CC(O)(c1ccc(F)cn1)C(F)(F)CCOc1c(Cl)ccc(-c2ccn3nc(N)nc3c2)c1F (single isomer, unassigned) [Example 31] ?
Output: 5.3

----------
Target: mouse Breast Cancer Resistance Protein (mBcrp) (Mus musculus)
Construct: host or cells: MDCK (MDCK-mBcrp)
Assay: Transporter assay, bi-directional transport, MDCK-mBcrp cells
Format: in vitro ADME
Conditions: mouse, basolateral to apical / apical to basolateral, >2 = substrate, read-out: BCRP (efflux ratio)
Protocol: Compounds were assessed as substrates of MDR1 P-glycoprotein (P-gp) and mouse Breast Cancer Resistance Protein (mBcrp) at 0.1 uM, for 2 hours, in bi-directional transport assays using recombinant MDCK cell lines as described previously (Feng et al. Drug Metabolism and Disposition 2008, Vol. 36:268-275). […] Data are expressed as efflux ratios, where transport across the cell monolayer in the basolateral to apical direction is divided by transport in the apical to basolateral direction. […]
compounds and their reported efflux ratio at 2 h, 0.1 uM
The reply should be a number, written without any unit.

Use the examples below as a reference point.
>>> reportedresult("[2H]C([2H])(CC(F)(F)C(C)(O)c1ccc(F)cc1)Oc1c(F)ccc(-c2ccn3nc(N)nc3c2)c1F (single isomer, unassigned)")
2.9
>>> reportedresult("CC(O)(c1ccccc1)C(F)(F)CCOc1c(F)ccc(-c2ccn3nc(N)nc3c2)c1F (single isomer, unassigned)")
4.8

Proceed to the following item.
Input: # query: efflux ratio at 2 h, 0.1 uM of entry [2H]C([2H])(CC(F)(F)C(C)(O)c1ccc(F)cc1)Oc1cccc(-c2ccn3nc(N)nc3c2)c1F (single isomer, unassigned)
Output: 3.9

----------
compounds and their reported efflux ratio at 2 h, 0.1 uM
biological target: mouse Breast Cancer Resistance Protein (mBcrp) (Mus musculus, UniProt Q7TMS5); construct: host or cells: MDCK (MDCK-mBcrp); assay: Transporter assay, bi-directional transport, MDCK-mBcrp cells; assay type: in vitro ADME; conditions: mouse, basolateral to apical / apical to basolateral, >2 = substrate, read-out: BCRP (efflux ratio)
Sequence (Q7TMS5 whole entry): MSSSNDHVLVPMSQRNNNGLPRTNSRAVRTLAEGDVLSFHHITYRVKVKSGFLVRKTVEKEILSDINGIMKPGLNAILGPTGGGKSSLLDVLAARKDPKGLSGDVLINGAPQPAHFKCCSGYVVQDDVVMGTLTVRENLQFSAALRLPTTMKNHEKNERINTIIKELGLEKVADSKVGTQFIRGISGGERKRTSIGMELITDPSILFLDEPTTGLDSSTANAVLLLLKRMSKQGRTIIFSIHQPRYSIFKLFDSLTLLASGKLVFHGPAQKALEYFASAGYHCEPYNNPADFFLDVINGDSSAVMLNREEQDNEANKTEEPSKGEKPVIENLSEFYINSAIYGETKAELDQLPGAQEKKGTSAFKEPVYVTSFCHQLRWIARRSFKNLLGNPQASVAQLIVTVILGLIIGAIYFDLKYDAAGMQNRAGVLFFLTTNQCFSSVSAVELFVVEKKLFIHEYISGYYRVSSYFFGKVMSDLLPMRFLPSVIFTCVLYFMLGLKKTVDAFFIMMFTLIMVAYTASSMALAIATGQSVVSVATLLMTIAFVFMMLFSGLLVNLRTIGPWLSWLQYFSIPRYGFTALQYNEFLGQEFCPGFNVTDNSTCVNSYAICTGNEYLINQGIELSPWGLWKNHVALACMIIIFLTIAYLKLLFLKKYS

Use the examples below as a reference point.
>>> reportedresult("C[C@](O)(c1ccc(F)cc1)C(F)(F)CCOc1c(F)ccc(-c2ccn3nc(N)nc3c2)c1F (single isomer, unassigned)")
4
>>> reportedresult("Cc1ccc(-c2ccn3nc(N)nc3c2)c(F)c1C(=O)NCC(F)(F)C(O)c1ccc(F)cc1 (stereo not drawn) [Example 30 from WO2022/086828, reference compound]")
43
>>> reportedresult("C[C@@](O)(c1ccc(F)cc1)C(F)(F)CCOc1c(F)ccc(-c2ccn3nc(N)nc3c2)c1F (single isomer, unassigned)")
2.4
>>> reportedresult("CC(O)(c1ccc(F)cn1)C(F)(F)CCOc1c(F)ccc(-c2ccn3nc(N)nc3c2)c1F (single isomer, unassigned)")
1.6
>>> reportedresult("Nc1nc2cc(-c3ccc(F)c(OCCC(F)(F)C(O)c4ccc(F)cn4)c3F)ccn2n1 (single isomer, unassigned)")
7

Input: # query: efflux ratio at 2 h, 0.1 uM of entry CC(O)(c1ccccc1)C(F)(F)CCOc1c(F)ccc(-c2ccn3nc(N)nc3c2F)c1F (single isomer, unassigned)
Output: 5.1

Input: Check CC(O)(c1ccc(F)cn1)C(F)(F)CCOc1c(Cl)ccc(-c2ccn3nc(N)nc3c2)c1F (single isomer, unassigned) too.
Output: 1.4

Input: Check CC(O)(c1ccc(F)cc1)C(F)(F)CCOc1cccc(-c2ccn3nc(N)nc3c2)c1F (single isomer, unassigned) too.
Output: 6.2

Input: Check CC(O)(c1ccc(F)cc1)C(F)(F)CCOc1c(F)cc(F)c(-c2ccn3nc(N)nc3c2)c1F (single isomer, unassigned) too.
Output: 2.5

Input: Check CC(O)(c1ccc(F)cc1)C(F)(F)CCOc1ccc(Cl)c(-c2ccn3nc(N)nc3c2)n1 (single isomer, unassigned) too.
Output: 5.6

Input: Check CC(O)(c1ccc(F)cc1)C(F)(F)CCOc1c(F)c(F)cc(-c2ccn3nc(N)nc3c2)c1F (single isomer, unassigned) too.
Output: 3

Input: Check CC(O)(c1ccc(F)cc1)C(F)(F)CCOc1c(Cl)ccc(-c2ccn3nc(N)nc3c2)c1F (single isomer, unassigned) too.
Output: 1.7

----------
tested on: hWB; test: hWB; format: cell-based; settings: printed as "hWB" value in the pMLKL IC50 column; no method given
molecules and their reported IC50
The reply must contain the numeric value and, after it, the unit.

>>> reportedresult("CC(O)(c1ccc(F)cn1)C(F)(F)CCOc1c(F)ccc(-c2ccn3nc(N)nc3c2)c1F (single isomer, unassigned) [Example 27]")
"64 nM"
>>> reportedresult("CC(O)(c1ccc(F)cc1)C(F)(F)CCOc1c(F)c(F)cc(-c2ccn3nc(N)nc3c2)c1F (single isomer, unassigned) [Example 30]")
"8 nM"
>>> reportedresult("CC(O)(c1ccc(F)cn1)C(F)(F)CCOc1c(F)ccc(-c2ccn3nc(N)nc3c2)c1F (single isomer, unassigned) [Example 28]")
"82 nM"

Proceed to the following item.
Input: # query: IC50 of entry CC(O)(c1ccc(F)cc1)C(F)(F)CCOc1c(F)cc(F)c(-c2ccn3nc(N)nc3c2)c1F (single isomer, unassigned) [Example 29]
Output: 4 nM

----------
target: MDR1 P-glycoprotein (P-gp) (Homo sapiens); construct: host or cells: MDCK (MDCK-MDR1); experiment: Transporter assay, bi-directional transport, MDCK-MDR1 cells; assay type: in vitro ADME; details: human, MDCK-MDR1, 0.1 uM, basolateral to apical / apical to basolateral, >2 = substrate, read-out: PGP (efflux ratio)
Could you please mark t for values of efflux ratio at 2 h, 0.1 uM below 2 and f for values at or above it?

Sample answers from the record:
>>> classassignment("CC(O)(c1ccccc1)C(F)(F)CCOc1c(F)ccc(-c2ccn3nc(N)nc3c2F)c1F (single isomer, unassigned)")
"f"
>>> classassignment("CC(O)(c1ccccc1)C(F)(F)CCOc1c(F)ccc(-c2ccn3nc(N)nc3c2)c1F (single isomer, unassigned)")
"t"
>>> classassignment("CC(O)(c1ccc(F)cc1)C(F)(F)CCOc1ccc(Cl)c(-c2ccn3nc(N)nc3c2)n1 (single isomer, unassigned)")
"f"
>>> classassignment("CC(O)(c1ccc(F)cc1)C(F)(F)CCOc1c(F)c(F)cc(-c2ccn3nc(N)nc3c2)c1F (single isomer, unassigned)")
"f"
>>> classassignment("C[C@@](O)(c1ccc(F)cc1)C(F)(F)CCOc1c(F)ccc(-c2ccn3nc(N)nc3c2)c1F (single isomer, unassigned)")
"t"

Continue with the compound presented below.
Input: Is efflux ratio at 2 h, 0.1 uM of CC(O)(c1ccc(F)cc1)C(F)(F)CCOc1c(Cl)ccc(-c2ccn3nc(N)nc3c2)c1F (single isomer, unassigned) strictly below 2?
Output: t

----------
molecular target: MDR1 P-glycoprotein (P-gp) (Homo sapiens, UniProt P08183); construct: host or cells: MDCK (MDCK-MDR1); assay: Transporter assay, bi-directional transport, MDCK-MDR1 cells; format: in vitro ADME; settings: human, MDCK-MDR1, 0.1 uM, basolateral to apical / apical to basolateral, >2 = substrate, read-out: PGP (efflux ratio)
readoutLabel: efflux ratio at 2 h, 0.1 uM
The reply should be a number, written without any unit.

Use the examples below as a reference point.
>>> reportedresult("[2H]C([2H])(CC(F)(F)C(C)(O)c1ccc(F)cc1)Oc1c(F)ccc(-c2ccn3nc(N)nc3c2)c1F (single isomer, unassigned) [Example 15]")
1.4
>>> reportedresult("Nc1nc2cc(-c3ccc(F)c(OCCC(F)(F)C(O)c4ccc(F)cn4)c3F)ccn2n1 (single isomer, unassigned) [Example 34]")
2.4
>>> reportedresult("C[C@](O)(c1ccc(F)cc1)C(F)(F)CCOc1c(F)ccc(-c2ccn3nc(N)nc3c2)c1F (single isomer, unassigned) [Example 49]")
1.5
>>> reportedresult("CC(O)(c1ccc(F)cc1)C(F)(F)CCOc1c(F)cc(F)c(-c2ccn3nc(N)nc3c2)c1F (single isomer, unassigned) [Example 29]")
1.6

Input: # query: efflux ratio at 2 h, 0.1 uM of entry [2H]C([2H])(CC(F)(F)C(C)(O)c1ccc(F)cc1)Oc1cccc(-c2ccn3nc(N)nc3c2)c1F (single isomer, unassigned) [Example 13]
Output: 1.8

Input: Check Cc1ccc(-c2ccn3nc(N)nc3c2)c(F)c1C(=O)NCC(F)(F)C(O)c1ccc(F)cc1 (stereo not drawn) [Example 30 from WO2022/086828, reference compound] too.
Output: 35
